Tested on: PPARg:RXRa IVT, anti-PPARg (NR concentration 270 nM, RXRa partner concentration 90 nM)
Assay: PBM binding z-score (relative to random genomic background probes); higher = stronger binding; sequences stand for … in GC…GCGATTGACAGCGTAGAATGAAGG
measured endpoint: PBM binding z-score
Just the number, please, no unit attached.

Sample answers from the record:
>  <primary sequence>
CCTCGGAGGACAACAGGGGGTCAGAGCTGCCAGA

>  <PBM binding z-score>
1.33

$$$$
>  <primary sequence>
CCGACTGGGGCAAAGGTTAACATACTCAGTACGA

>  <PBM binding z-score>
6.54

$$$$
>  <primary sequence>
CCGACTGGGGCAAGGTTACCATTACGCACAGCCA

>  <PBM binding z-score>
3.49

$$$$
>  <primary sequence>
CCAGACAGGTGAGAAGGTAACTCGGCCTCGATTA

>  <PBM binding z-score>
0.832

$$$$
>  <primary sequence>
ACCTCTAGGTAACAAGTTCAGTGAAAGAGAGGAC

>  <PBM binding z-score>
2.07

$$$$

Q: So what does the record say about PBM binding z-score for ACTTACGGGTCAACGAGGTGATAGCACGCGTATA ?
Ans: 4.4

Q: Same question, AGAATGAGGTTAAGATCAGGGAAACAGAATACAT this time
Ans: 2.83

----------
Test system: LXRb homodimer (NR concentration 270 nM)
Assay: PBM binding z-score (relative to random genomic background probes); higher = stronger binding; sequences stand for … in GC…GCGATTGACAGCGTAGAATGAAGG
Label Condition met for high-side PBM binding z-score (at or above 0.1) and Condition not met for low-side PBM binding z-score (below it).

>  <primary sequence>
ATCTCTAGGTAACAAGTTCAGTTAAAGAGAGGAC

>  <tested target>
LXRb homodimer (NR concentration 270 nM)

>  <group>
Condition met

$$$$
>  <primary sequence>
CGTCCAAGGTCAGCAGGTCAGTTAAAGCGACGTG

>  <tested target>
LXRb homodimer (NR concentration 270 nM)

>  <group>
Condition not met

$$$$
>  <primary sequence>
ATTGAAAGGTCGAAGGTGAGTATACCCACCCGAA

>  <tested target>
LXRb homodimer (NR concentration 270 nM)

>  <group>
Condition met

$$$$
>  <primary sequence>
TCTAGCAGGCCAGAGGGTCAATCAAGAGGTACGG

>  <tested target>
LXRb homodimer (NR concentration 270 nM)

>  <group>
Condition not met

$$$$
>  <primary sequence>
TCTTGTAGATCAAAGGTTAAGCAAGCCGAAGCCT

>  <tested target>
LXRb homodimer (NR concentration 270 nM)

>  <group>
Condition not met

$$$$

Q: I'd appreciate it if you could say whether CGACCAAGGTCAAGGTCAGTGAAAGAGACTCGAA has PBM binding z-score at least equal to 0.1.
Ans: Condition met

Q: Try the sequence TCTGCTAGGTCAACGATGGTCAGCTGATCTGCTA
Ans: Condition met

----------
Tested on: VDR:RXRa (NR concentration 270 nM, RXRa partner concentration 90 nM)
Experiment: PBM binding z-score (relative to random genomic background probes); higher = stronger binding; sequences stand for … in GC…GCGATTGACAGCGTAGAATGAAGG
measured endpoint: PBM binding z-score
Just the number, please, no unit after it.

>  <primary sequence>
CTCGAAAGGTCGGTTGAGATGAGTATACGGATAA

>  <PBM binding z-score>
0.961

$$$$

Q: Requested field: PBM binding z-score. Item: CGTCCAAGGTCATAGGAGGTCAGTGGAGACAGAT
Ans: 6.87

Q: Also CCTCGGAGGACAGAAGCTCAGAGCTGTCCGCTTT , if possible.
Ans: -0.941

Q: Consider next the sequence TCATATAGGTAAAGGTGAAAGTTGAACGATATGA in the same way.
Ans: 1.58

Q: // repeat for TCATATAGGTAAAAGGTTAAAGTCGGTGTGGTAA and report
Ans: 2.73

----------
Test system: LXRa homodimer (NR concentration 270 nM)
Test: PBM binding z-score (relative to random genomic background probes); higher = stronger binding; sequences stand for … in GC…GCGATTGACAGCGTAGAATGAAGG
measured endpoint: PBM binding z-score
Give the value as a plain number.

Consider the reported PBM binding z-score for these sequences:
>  <primary sequence>
TCAGACAGGTTAAGGTAACTCAGGTACGCAGTCG

>  <PBM binding z-score>
0.305

$$$$
>  <primary sequence>
GCGCCTGGGGCAAAGCAGGTTACCATAAGGTTGG

>  <PBM binding z-score>
-0.679

$$$$
>  <primary sequence>
ATCTCTAGGAAAGACTCAGTTCAGTGAAGAACGC

>  <PBM binding z-score>
0.437

$$$$
>  <primary sequence>
CTCGAAAGGTCGTGCTCAGGTGAGCATACCAAAC

>  <PBM binding z-score>
-0.293

$$$$
>  <primary sequence>
ATCTCTAGGTAAAAGATCAGTGAATCCCGAGGAT

>  <PBM binding z-score>
0.0922

$$$$

Turning to the following sequence.
Q: Look up PBM binding z-score: TCGAGTAGGTTAGCAATGGGGCATTCAGCTTTCT
Ans: -0.715

----------
Test system: RARa:RXR (NR concentration 270 nM, RXRa partner concentration 90 nM)
Test: PBM binding z-score (relative to random genomic background probes); higher = stronger binding; sequences stand for … in GC…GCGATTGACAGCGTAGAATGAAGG
So basically: PBM binding z-score at 1 or higher? That is label 1. Lower than 1? That is label 0.

>  <primary sequence>
CTTGAAAGGTCGGTTGAGGTGAGTATACGGATAA

>  <tested target>
RARa:RXR (NR concentration 270 nM, RXRa partner concentration 90 nM)

>  <group>
label 1

$$$$
>  <primary sequence>
AGTCAAAGTTCAGGATGAGGTAACGTAAAGCACG

>  <tested target>
RARa:RXR (NR concentration 270 nM, RXRa partner concentration 90 nM)

>  <group>
label 1

$$$$

Q: Given CCGACTGGTGCATAAGGTTACCATAAGCCAGCCC , state whether its PBM binding z-score is at least 1.
Ans: label 1

Q: Item: CCGGCTGGGGCAGAAAGGTTACCATACCATCCGG
Ans: label 1

Q: // next record CCGAGTAGGTTATGGGGCATTCAGGCAACGGTGA
Ans: label 0

Q: Then TTACCAAGCTGAAAGGTCGTTGATGCACGCCTTG ?
Ans: label 1

Q: Entry CCCACTGGGGCAGAAAGGTTACCATACCATCCGG please
Ans: label 1

Q: Lookup TCAGACAGGGGAAGGTAACTCAGGTACGCAGTCG
Ans: label 0

Q: Lookup TCCTATAGGTAAAAGGTGAAAGTCGGTGTGGTAA
Ans: label 1

----------
Items are presented alongside their recorded PBM binding z-score.
Tested on: PPARg:RXRa 30nM:10nM, anti-RXR (NR concentration 30 nM, RXRa partner concentration 10 nM)
Assay: PBM binding z-score (relative to random genomic background probes); higher = stronger binding; sequences stand for … in GC…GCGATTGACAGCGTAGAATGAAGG
Please respond with just the number, no unit label.

>  <primary sequence>
ATATGTAGGTTAACGGTCATTCAGGTTGGTTCGC

>  <measured endpoint>
PBM binding z-score

>  <result>
7.82

$$$$
>  <primary sequence>
CGTCCAAGGTCAGAGCGGTCAGTGAATGCCGAGT

>  <measured endpoint>
PBM binding z-score

>  <result>
0.148

$$$$
>  <primary sequence>
GCTGCTAGGTCAGGTTGGTGAGCTAACGGGTACG

>  <measured endpoint>
PBM binding z-score

>  <result>
-0.603

$$$$

Q: Reported PBM binding z-score for CGAACTAGGTCATTGACAGGACATTGAATAGTAA : what is it?
Ans: 4.27

Q: Entry to check: ATCTCTAGGTAAGACTCAGTTCAGTGAAGAACGC
Ans: 0.412

Q: And what about the sequence GCATATAGGTAATACAAGGTTAAAGTCCGATTGT ?
Ans: 0.655

Q: Next record, please: CTACCAAGGTGAACAAGGTGGTTGATTACTATTC
Ans: -0.231

Q: # repeat for TCTAGCAGGCCAGAGGGTCACGCAAGAGGTACGG
Ans: 1.96

Q: Thanks! And AGAATGAGGTTAAGATCAGCGAAACAGAATACAT ?
Ans: 0.794

Q: Do the same for AGTTACGGGTCAACGAGGTTATAGCACGCGTATA please
Ans: 2.17

Q: How about this sequence: CCTATTAGTTGACCATAATGGCAACCGAAGCTCG
Ans: -0.187

----------
Tested on: PPARg:RXRa 90nM:30nM, anti-RXR (NR concentration 90 nM, RXRa partner concentration 30 nM)
Assay: PBM binding z-score (relative to random genomic background probes); higher = stronger binding; sequences stand for … in GC…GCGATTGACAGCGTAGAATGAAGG
Listing of entries alongside the reported PBM binding z-score.

These solved cases illustrate the format of a correct answer.
>  <primary sequence>
CCTATTAGTAGACCATAAGGGCAACCGAAGCTCG

>  <result>
0.915

$$$$
>  <primary sequence>
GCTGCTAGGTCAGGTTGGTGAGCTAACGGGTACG

>  <result>
0.225

$$$$
>  <primary sequence>
CCTCTTAGTTGACCATAAGGGCAACCGAAGCTCG

>  <result>
0.305

$$$$
>  <primary sequence>
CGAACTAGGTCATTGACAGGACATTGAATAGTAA

>  <result>
5.95

$$$$
>  <primary sequence>
AGTCAAAGTTCACTACGTAACGTAAGATTCAGCT

>  <result>
4.64

$$$$

Q: Form field: reported PBM binding z-score of AATACATGGTCATCGTAGGCCAGAGTACGCACAG
Ans: 0.514

Q: Also CAAACTAGGTCAAGAGGTCCAAGTCCGCTTCCCG ?
Ans: 6.56

Q: Ok, now CGTCCAAGGTCAAAGCTCAGTGAAGAGATGACGG
Ans: 4.12

Source listed as the supplement of paper PMC6555819.
